test_target: glycine transporter encoded by rB20a (Rattus norvegicus, UniProt P28572)
Construct: expressed in transfected cells
Sequence (P28572 whole entry): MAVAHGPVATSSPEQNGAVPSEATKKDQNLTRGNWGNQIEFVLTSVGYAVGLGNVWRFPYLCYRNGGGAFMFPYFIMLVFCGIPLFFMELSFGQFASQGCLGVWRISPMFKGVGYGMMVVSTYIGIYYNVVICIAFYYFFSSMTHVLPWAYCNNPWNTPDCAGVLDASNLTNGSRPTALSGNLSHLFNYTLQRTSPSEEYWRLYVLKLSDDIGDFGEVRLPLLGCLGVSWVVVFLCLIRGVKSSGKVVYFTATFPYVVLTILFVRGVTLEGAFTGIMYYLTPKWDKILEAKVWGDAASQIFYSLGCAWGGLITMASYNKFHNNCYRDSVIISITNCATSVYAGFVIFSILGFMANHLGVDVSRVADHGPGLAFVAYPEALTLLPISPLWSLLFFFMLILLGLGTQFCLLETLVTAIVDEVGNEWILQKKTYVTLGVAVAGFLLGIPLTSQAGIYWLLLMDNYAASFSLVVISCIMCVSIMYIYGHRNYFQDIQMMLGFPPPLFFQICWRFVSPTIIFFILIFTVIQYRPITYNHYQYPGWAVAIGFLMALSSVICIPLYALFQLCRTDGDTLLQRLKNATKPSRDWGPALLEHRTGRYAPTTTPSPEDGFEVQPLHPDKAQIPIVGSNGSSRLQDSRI
protocol_summary: Competition for [3H]glycine uptake by COS-7 cells transfected with rB20a
Assay type: cell-based
measurement_setup: COS-7, 10 min, read-out: % displacement of specific [3H]glycine uptake
readout_label: inhibition at 1000 µM (%)
// units = %; emit number, no label

For orientation, consider the following solved cases.
>  <molecule>
C[C@H](N)C(=O)O

>  <readout_units>
%

>  <meas_value>
2

$$$$
>  <molecule>
NCCc1c[nH]cn1

>  <readout_units>
%

>  <meas_value>
0

$$$$
>  <molecule>
NCCCC(=O)O

>  <readout_units>
%

>  <meas_value>
0

$$$$
>  <molecule>
CNC(C)(C)C(=O)O

>  <readout_units>
%

>  <meas_value>
3

$$$$
>  <molecule>
NC[C@H](O)c1ccc(O)c(O)c1 [(-)-norepinephrine]

>  <readout_units>
%

>  <meas_value>
0

$$$$

// recorded inhibition at 1000 µM for N[C@@H](CCC(=O)O)C(=O)O [L-glutamate] : 0

// recorded inhibition at 1000 µM for "CCOC(=O)CN" : 32

// recorded inhibition at 1000 µM for "CNCC(=O)O" : 100

// recorded inhibition at 1000 µM for "N[C@@H](CO)C(=O)O" : 4

// recorded inhibition at 1000 µM for "NCC(=O)O" : 100

// recorded inhibition at 1000 µM for "NCCc1ccc(O)c(O)c1" : 0

// recorded inhibition at 1000 µM for "COC(=O)CN" : 42
